Assay: Phase 1 first-in-human study, single oral dose pharmacokinetics in healthy subjects (drug layered formulation capsules)
Type: in vivo
Conditions: human, plasma, po, 20 mg, single oral dose 20 mg, fasted state, geometric mean
property_label: half-life
Include the unit right after the number.

For this compound ( OC[C@H]1O[C@H](Sc2cncc(Br)c2)[C@H](O)[C@@H](n2cc(-c3cc(F)c(F)c(F)c3)nn2)[C@H]1O ), measured half-life is 12.4 h

---

Test: Phase 1 study, multiple oral dose (twice a day for 10 days) pharmacokinetics in healthy subjects
Type: in vivo, human
Conditions: human, plasma; 50 mg BID oral, fasted state, Day 1, healthy subjects, geometric mean
property_label: Cmax (ng/mL)
One number for each entry, in ng/mL.

For this compound ( OC[C@H]1O[C@H](Sc2cncc(Br)c2)[C@H](O)[C@@H](n2cc(-c3cc(F)c(F)c(F)c3)nn2)[C@H]1O ), measured Cmax is 330

---

Experiment: Phase 1 study, multiple oral dose (twice a day for 10 days) pharmacokinetics in healthy subjects
Type: in vivo, human
Settings: human, plasma, po, 50 mg, 50 mg BID oral, fasted state, Day 10, healthy subjects, geometric mean
property_label: half-life (h)
One number for each entry, in h.

For this molecule ( OC[C@H]1O[C@H](Sc2cncc(Br)c2)[C@H](O)[C@@H](n2cc(-c3cc(F)c(F)c(F)c3)nn2)[C@H]1O ), measured half-life is 20.2

---

Assay: Phase 1 first-in-human study, single oral dose pharmacokinetics in healthy subjects (drug layered formulation capsules)
Type: in vivo
Details: human, plasma, po, 400 mg, single oral dose 400 mg, fasted state, geometric mean, read-out: AUC0-24
property_label: AUC(0-t) (ng·h/mL)
Numbers only, in ng·h/mL.

For this compound ( OC[C@H]1O[C@H](Sc2cncc(Br)c2)[C@H](O)[C@@H](n2cc(-c3cc(F)c(F)c(F)c3)nn2)[C@H]1O ), measured AUC(0-t) is 15100

---

Assay: Phase 1 first-in-human study, single oral dose pharmacokinetics in healthy subjects (drug layered formulation capsules)
Format: in vivo
Details: human, single oral dose 100 mg, fasted state, plasma, geometric mean
property_label: AUC(0-inf) (ng·h/mL)
Numbers only, in ng·h/mL.

For this compound ( OC[C@H]1O[C@H](Sc2cncc(Br)c2)[C@H](O)[C@@H](n2cc(-c3cc(F)c(F)c(F)c3)nn2)[C@H]1O ), measured AUC(0-inf) is 6360

---

Assay: Phase 1 study, multiple oral dose (twice a day for 10 days) pharmacokinetics in healthy subjects
Format: in vivo, human
Conditions: human, plasma, po, 50 mg, 50 mg BID oral, fasted state, Day 1, geometric mean; unreliable due to short sampling duration 0-12 hours, exploratory
property_label: half-life (h)
One number for each entry, in h.

For this molecule ( OC[C@H]1O[C@H](Sc2cncc(Br)c2)[C@H](O)[C@@H](n2cc(-c3cc(F)c(F)c(F)c3)nn2)[C@H]1O ), measured half-life is 7.34

---

Test: Phase 1 first-in-human study, single oral dose pharmacokinetics in healthy subjects (drug layered formulation capsules)
Format: in vivo
Details: human, plasma, po, 5 mg, single oral dose 5 mg, fasted state, median
property_label: Tmax (h)
One number for each entry, in h.

For this compound ( OC[C@H]1O[C@H](Sc2cncc(Br)c2)[C@H](O)[C@@H](n2cc(-c3cc(F)c(F)c(F)c3)nn2)[C@H]1O [GB1211] ), measured Tmax is 2

---

Assay: Phase 1 first-in-human study, single oral dose pharmacokinetics in healthy subjects (drug layered formulation capsules)
Assay type: in vivo
Details: human, plasma, po, 100 mg, single oral dose 100 mg, fasted state, geometric mean, read-out: AUC0-24
Description: The first part of this study aims to obtain safety, tolerability and pharmacokinetic data when the compound of formula I is administered orally as a single dose in healthy subjects using the above drug layered formulation. Experimental Data from Healthy Subject Cohort A1: 5 mg Compound of Formula I (API) 6 healthy subjects received 5 mg of compound of formula I capsules orally as a single dose in the fasted state, and 2 subjects receive placebo. […]
property_label: AUC(0-t) (ng·h/mL)
Answers are plain numbers, in ng·h/mL.

For this compound ( OC[C@H]1O[C@H](Sc2cncc(Br)c2)[C@H](O)[C@@H](n2cc(-c3cc(F)c(F)c(F)c3)nn2)[C@H]1O ), measured AUC(0-t) is 4900

---

Assay: Phase 1 first-in-human study, single oral dose pharmacokinetics in healthy subjects (drug layered formulation capsules)
Format: in vivo
Conditions: human, plasma, po, 50 mg, single oral dose 50 mg (1 × 50 mg), fed state, median
property_label: Tmax
Include the unit right after the number.

For this compound ( OC[C@H]1O[C@H](Sc2cncc(Br)c2)[C@H](O)[C@@H](n2cc(-c3cc(F)c(F)c(F)c3)nn2)[C@H]1O [GB1211] ), measured Tmax is 5 h

---

Test: Phase 1 first-in-human study, single oral dose pharmacokinetics in healthy subjects (drug layered formulation capsules)
Assay type: in vivo
Conditions: human, plasma, po, 200 mg, single oral dose 200 mg, fasted state, geometric mean, read-out: AUC0-24
property_label: AUC(0-t)
Include the unit right after the number.

For this compound ( OC[C@H]1O[C@H](Sc2cncc(Br)c2)[C@H](O)[C@@H](n2cc(-c3cc(F)c(F)c(F)c3)nn2)[C@H]1O ), measured AUC(0-t) is 9.05 µg·h/mL

---

Experiment: Phase 1 first-in-human study, single oral dose pharmacokinetics in healthy subjects (drug layered formulation capsules)
Type: in vivo
Settings: human, plasma, po, 200 mg, single oral dose 200 mg, fasted state, median
property_label: Tmax

For this molecule ( OC[C@H]1O[C@H](Sc2cncc(Br)c2)[C@H](O)[C@@H](n2cc(-c3cc(F)c(F)c(F)c3)nn2)[C@H]1O ), measured Tmax is 3.5 h

---

Assay: Phase 1 first-in-human study, single oral dose pharmacokinetics in healthy subjects (drug layered formulation capsules)
Type: in vivo
Details: human, plasma, po, 100 mg, single oral dose 100 mg, fasted state, median
property_label: Tmax (h)
Give bare numbers, in h.

For this molecule ( OC[C@H]1O[C@H](Sc2cncc(Br)c2)[C@H](O)[C@@H](n2cc(-c3cc(F)c(F)c(F)c3)nn2)[C@H]1O [GB1211] ), measured Tmax is 3.5

---

Assay: Phase 1 first-in-human study, single oral dose pharmacokinetics in healthy subjects (drug layered formulation capsules)
Format: in vivo
Conditions: human, plasma, po, 200 mg, single oral dose 200 mg, fasted state, geometric mean
Protocol: The first part of this study aims to obtain safety, tolerability and pharmacokinetic data when the compound of formula I is administered orally as a single dose in healthy subjects using the above drug layered formulation. Experimental Data from Healthy Subject Cohort A1: 5 mg Compound of Formula I (API) 6 healthy subjects received 5 mg of compound of formula I capsules orally as a single dose in the fasted state, and 2 subjects receive placebo. […]
property_label: half-life (min)
Give bare numbers, in min.

For this compound ( OC[C@H]1O[C@H](Sc2cncc(Br)c2)[C@H](O)[C@@H](n2cc(-c3cc(F)c(F)c(F)c3)nn2)[C@H]1O ), measured half-life is 906

---

Experiment: Phase 1 first-in-human study, single oral dose pharmacokinetics in healthy subjects (drug layered formulation capsules)
Assay type: in vivo
Conditions: human, plasma, po, 50 mg, single oral dose 50 mg (1 × 50 mg), fed state, geometric mean
property_label: half-life (h)
Answers are plain numbers, in h.

For this compound ( OC[C@H]1O[C@H](Sc2cncc(Br)c2)[C@H](O)[C@@H](n2cc(-c3cc(F)c(F)c(F)c3)nn2)[C@H]1O ), measured half-life is 12.8

---

Experiment: Phase 1 first-in-human study, single oral dose pharmacokinetics in healthy subjects (drug layered formulation capsules)
Assay type: in vivo
Conditions: human, plasma, po, 50 mg, single oral dose 50 mg (1 × 50 mg), fasted state, geometric mean, read-out: AUC0-24
property_label: AUC(0-t) (ng·h/mL)
Give bare numbers, in ng·h/mL.

For this molecule ( OC[C@H]1O[C@H](Sc2cncc(Br)c2)[C@H](O)[C@@H](n2cc(-c3cc(F)c(F)c(F)c3)nn2)[C@H]1O ), measured AUC(0-t) is 3400

---

Test: Phase 1 first-in-human study, single oral dose pharmacokinetics in healthy subjects (drug layered formulation capsules)
Format: in vivo
Details: human, plasma, po, 50 mg, single oral dose 50 mg (1 × 50 mg), fed state, geometric mean, read-out: AUC0-24
property_label: AUC(0-t) (ng·h/mL)
Numbers only, in ng·h/mL.

For this compound ( OC[C@H]1O[C@H](Sc2cncc(Br)c2)[C@H](O)[C@@H](n2cc(-c3cc(F)c(F)c(F)c3)nn2)[C@H]1O [GB1211] ), measured AUC(0-t) is 3820

---

Test: Phase 1 first-in-human study, single oral dose pharmacokinetics in healthy subjects (drug layered formulation capsules)
Assay type: in vivo
Settings: human, plasma, po, 400 mg, single oral dose 400 mg, fasted state, median
Experimental: The first part of this study aims to obtain safety, tolerability and pharmacokinetic data when the compound of formula I is administered orally as a single dose in healthy subjects using the above drug layered formulation. Experimental Data from Healthy Subject Cohort A1: 5 mg Compound of Formula I (API) 6 healthy subjects received 5 mg of compound of formula I capsules orally as a single dose in the fasted state, and 2 subjects receive placebo. […]
property_label: Tmax
Include the unit right after the number.

For this molecule ( OC[C@H]1O[C@H](Sc2cncc(Br)c2)[C@H](O)[C@@H](n2cc(-c3cc(F)c(F)c(F)c3)nn2)[C@H]1O ), measured Tmax is 4 h

Recorded values, source patent US20220064204A1.
